Numbers sourced from paper PMC4041446.

Biological target: SaTBP;SaTFB (TFB1) (Sulfolobus acidocaldarius;Sulfolobus acidocaldarius)
Assay: smFRET titration (confocal)
Settings: SaTBP titrated; SaTFB 3 uM (Fig S7) or 2 uM; smFRET: N70 buffer (Mj) or N65 buffer (Sa), compositions in Table 1 not in the material; Sa EMSA: 10 mM MOPS pH 6.5, 180 mM NaCl, 20 mM KOAc, 11 mM MgCl2, 10% …
quantity kind: pKd
Friendly reminder that pKd comes from taking -log10 of the concentration in mol/L.

Ask: Quick check: pKd of CGGACCGAAAGCGCGACCATCGCCGGAGATTGGAGTAAAGTTTAAATACTG (double strand) [DNASSV (SSV T6 promoter)] ?
Reply: 6.03
